Tested on: COLO 205 colon
Experiment summary: NCI tumour cell line growth inhibition, 48 h; in the data active means GI50 below about 0.43 µM; inactive means the rest
Give one outcome, nothing more. List: active, inactive

Solved entries (count: 5):
[
  {
    "Structure notation": "O=C(N/N=c1/ccoc2cccnc12)N1CCN(c2ncccn2)CC1",
    "Class assignment": "active"
  },
  {
    "Structure notation": "CCCCCCCCCCCCCCCCOC(=O)c1c(C)[nH]c(/C=C2\\N=C(c3ccc[nH]3)C=C2OC)c1C",
    "Class assignment": "inactive"
  },
  {
    "Structure notation": "COc1ccc(/C(=N\\O)c2cc(OC)c(OC)c(OC)c2)c(OC)c1N",
    "Class assignment": "inactive"
  },
  {
    "Structure notation": "O=c1[nH]ccc2nc(-c3ccc(CN4CCC(c5nc(-c6ccccn6)n[nH]5)CC4)cc3)c(-c3ccccc3)cc12",
    "Class assignment": "inactive"
  },
  {
    "Structure notation": "COc1cc2c3c(n(CCCCNC(=O)OCC4c5ccccc5-c5ccccc54)c(=O)c2cc1OC)-c1cc2c(cc1C3=O)OCO2",
    "Class assignment": "inactive"
  }
]

Which result was noted for this compound in the test: COc1cc(C(=O)N2CCN(c3ccccc3OC)CC2)c(N)cc1OCc1ccccc1
inactive

State the result this test recorded for COc1cc2c(cc1OCCCCCn1c(-c3ccco3)nc3ccccc31)N=C[C@@H]1CCCN1C2=O .
active

Fill in: this test's call for Cc1cc(NCCCCNc2ccnc3cc(Cl)ccc23)nc(Nc2ccc(C(=O)N3CCCC3)cc2)n1 is ___
inactive

Fill in: this test's call for COc1cc2c3c(n(CCCNC(=O)OCC4c5ccccc5-c5ccccc54)c(=O)c2cc1OC)-c1cc2c(cc1C3=O)OCO2 is ___
inactive
